Assay: Therapeutic index (LD50/ID50), oral
Conditions: in vivo, os, LD50 in mice, ID50 in rats
# selectivity ratio >= 1000 gives MET, anything below gives NOT MET

## Task Would you say CCn1cccc1C(=O)OCC[C@H]1CN(C)[C@@H]2Cc3cn(C)c4cccc(c34)[C@@]2(OC)C1 shows selectivity ratio at minimum 1000?
## Result MET

## Task Quick check, selectivity ratio >= 1000? CO[C@]12C[C@@H](COC(=O)c3cncc(Br)c3)CN(C)[C@@H]1Cc1cn(C)c3cccc2c13 [Nicergoline, reference compound]
## Result NOT MET

## Task Determine whether this compound has selectivity ratio no lower than 1000: CO[C@]12C[C@@H](CCOC(=O)c3cc[nH]c3C)CN(C)[C@@H]1Cc1cn(C)c3cccc2c13
## Result MET

## Task Is reported selectivity ratio greater than or equal to 1000 here: CO[C@]12C[C@@H](CCOC(=O)c3c(C)cc(C)n3C)CN(C)[C@@H]1Cc1cn(C)c3cccc2c13
## Result MET

## Task In plain terms: is recorded selectivity ratio at least 1000 for CO[C@]12C[C@@H](CCOC(=O)c3[nH]c(C)cc3C)CN(C)[C@@H]1Cc1cn(C)c3cccc2c13 ?
## Result MET

## Task Exam item: decide whether the reported selectivity ratio for CO[C@]12C[C@@H](CCOC(=O)c3ccc[nH]3)CN(C)[C@@H]1Cc1cn(C)c3cccc2c13 is at least 1000.
## Result MET

----------
For each of the compounds below, state its LD50 at 168 h.
Test: Toxicity: LD50 by the oral route, 7 days follow-up
Settings: mouse, in vivo, mice, os, followed for 7 days
I only need the number, in mg/kg, no unit after it.

## Task Report LD50 at 168 h for CO[C@]12C[C@@H](CCOC(=O)c3[nH]c(C)cc3C)CN(C)[C@@H]1Cc1cn(C)c3cccc2c13 please.
## Result 300

## Task # query: LD50 at 168 h of entry CO[C@]12C[C@@H](CCOC(=O)c3cc[nH]c3C)CN(C)[C@@H]1Cc1cn(C)c3cccc2c13
## Result 100

## Task Item CCn1cccc1C(=O)OCC[C@H]1CN(C)[C@@H]2Cc3cn(C)c4cccc(c34)[C@@]2(OC)C1 has what recorded LD50 at 168 h?
## Result 180

## Task What does the data say about its LD50 at 168 h? Entry: CO[C@]12C[C@@H](CCOC(=O)c3c(C)cc(C)n3C)CN(C)[C@@H]1Cc1cn(C)c3cccc2c13
## Result 100

## Task Please look up its LD50 at 168 h: CO[C@]12C[C@@H](COC(=O)c3cncc(Br)c3)CN(C)[C@@H]1Cc1cn(C)c3cccc2c13 [Nicergoline, reference compound]
## Result 632

## Task Returns the measured LD50 at 168 h for the input compound. Input: CO[C@]12C[C@@H](CCOC(=O)c3ccc[nH]3)CN(C)[C@@H]1Cc1cn(C)c3cccc2c13
## Result 450
